Target: Tau
Assay: rat primary cortical neurons, FLIPR, 25 uM ASO
Bases are written 5' to 3'; sugars and linkages follow in the same order, as letters with counts (s phosphorothioate, o phosphodiester; PS: all linkages phosphorothioate). The collection does not say whether C is 5-methylated. l = locked nucleic acid (LNA); d = 2'-deoxy (DNA)
Metric Name: calcium oscillation score

Answered examples (5):
AACCATTAACTGCCTAT (sugars l4 d10 l3, PS) = 53 % of control
GAGAGACCACATTATCATCC (sugars l3 d14 l3, PS) = 96.7 % of control
TTCATCTACTTTTCAGCT (sugars l4 d12 l2, PS) = 47.2 % of control
TACCATGTCGATGCT (sugars l3 d9 l3, PS) = 81.6 % of control
GAGGCACAAGTCCTTA (sugars l3 d10 l3, PS) = 76.2 % of control

Okay, here is my list. What is calcium oscillation score for each of these?
1. CAATCCATTTATATTCTTTT (sugars l4 d12 l4, PS)
2. CCTTTGAAAGTCCTTT (sugars l3 d11 l2, PS)
3. TTTGAAGTCCCGAGCC (sugars l3 d10 l3, PS)
4. GAAGTCCCGAGCCAAAGCCG (sugars l3 d14 l3, PS)

### Response
63.2 % of control
121 % of control
22.4 % of control
5.18 % of control

Batch request: calcium oscillation score per item, same order as input.
1. CAGAATATTACACCAT (sugars l4 d8 l4, PS)
2. AATAAGAAAGGAACGC (sugars l4 d7 l5, PS)
3. TATTGAACTCACCCACTC (sugars l2 d13 l3, PS)
4. TGGACCACCTTACCAC (sugars l3 d10 l3, PS)
5. GATACTCAAATTCTTCC (sugars l4 d10 l3, PS)
6. GCCTTACTTTCTACTCAA (sugars l2 d13 l3, PS)

### Response
["102 % of control", "97.6 % of control", "69 % of control", "48.1 % of control", "67.8 % of control", "53.9 % of control"]

Please give calcium oscillation score, item by item, for the list that follows.
1. TTTGTCATCGCTTCCA (sugars l3 d10 l3, PS)
2. TTAATTATTAAATCTTCTCT (sugars l4 d12 l4, PS)
3. GTCTCAAATCAAACTA (sugars l4 d8 l4, PS)
4. CTCAAATCAATTCTCATTTC (sugars l4 d13 l3, PS)
5. TGTCCAAACTTTTACTC (sugars l4 d10 l3, PS)
6. CGCGGAAGGTCAGCTTGTGG (sugars l3 d14 l3, PS)
7. AATTATTAAATCTTCTCTTA (sugars l4 d12 l4, PS)

### Response
["20.7 % of control", "60.1 % of control", "60.6 % of control", "62 % of control", "65.3 % of control", "0 % of control", "62.6 % of control"]

Go through the list and state calcium oscillation score for each entry.
1. TGGATATAGTTAAGGC (sugars l4 d9 l3, PS)
2. TATTTACACTGTCCTTT (sugars l4 d9 l4, PS)

### Response
["107 % of control", "52.1 % of control"]

* * *

Target: Tau
Experiment: rat primary cortical neurons, FLIPR, 25 uM ASO
Bases are written 5' to 3'; sugars and linkages follow in the same order, as letters with counts (s phosphorothioate, o phosphodiester; PS: all linkages phosphorothioate). The collection does not say whether C is 5-methylated. l = locked nucleic acid (LNA); d = 2'-deoxy (DNA)
Would you kindly list calcium oscillation score for each of these sequences?

Record excerpt, results attached:
GGGCCTGATCACAAACCCTG (sugars l3 d14 l3, PS) = 42.7 % of control
CTTTTGAACCCATTCCAC (sugars l3 d13 l2, PS) = 110 % of control
TTCTTCATTCTTGCCC (sugars l2 d12 l2, PS) = 15.5 % of control
TGGCGGTGACTGCGA (sugars l3 d9 l3, PS) = 107 % of control
AACTTCTAATTTAGTC (sugars l4 d8 l4, PS) = 81.9 % of control
ACACTGTCGTCGAATG (sugars l3 d10 l3, PS) = 9.52 % of control
CCTTAATTTCACCC (sugars l3 d8 l3, PS) = 66.7 % of control
TCTTAATTCATTTAATTCTC (sugars l4 d12 l4, PS) = 87.1 % of control

Below is a list of sequences. For each, state its recorded calcium oscillation score.
1. TTTAATTCACACAACAAACT (sugars l4 d12 l4, PS)
2. CACTCTCTGCATATAT (sugars l4 d9 l3, PS)
3. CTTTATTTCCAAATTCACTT (sugars l2 d2 l1 d12 l3, PS)
4. TCACACACATGATTATC (sugars l4 d9 l4, PS)
5. TCCCCATTTATCCTTCA (sugars l2 d13 l2, PS)
6. CACCTCCTGGTTTATGATGG (sugars l3 d14 l3, PS)

### Response
["89.1 % of control", "69 % of control", "108 % of control", "78.5 % of control", "65.9 % of control", "0 % of control"]

* * *

Biological target: Tau
Assay: rat primary cortical neurons, FLIPR, 25 uM ASO
Bases are written 5' to 3'; sugars and linkages follow in the same order, as letters with counts (s phosphorothioate, o phosphodiester; PS: all linkages phosphorothioate). The collection does not say whether C is 5-methylated. l = locked nucleic acid (LNA); d = 2'-deoxy (DNA)
Consider the following sequences; for each one, report its calcium oscillation score.

Here are 3 sequences together with their reported answers.
CCAATCTTCGACTGGACTCT (sugars l3 d14 l3, PS) = 22.6 % of control
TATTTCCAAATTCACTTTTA (sugars l1 d17 l2, PS) = ≥ 200 % of control
CTTTGGCGTTCTCGCG (sugars l3 d10 l3, PS) = 93.5 % of control

Provide each entry's calcium oscillation score from the list below.
1. ACCTCTTAGTCATCTTCCC (sugars l2 d15 l2, PS)
2. CCAGCGTGATCTTCCATCAC (sugars l3 d14 l3, PS)
3. CTCTTGACAGTCACTGCTGA (sugars l3 d14 l3, PS)
4. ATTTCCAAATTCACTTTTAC (sugars l3 d14 l3, PS)

### Response
1. 67.9 % of control
2. 112 % of control
3. 29.4 % of control
4. ≥ 200 % of control

* * *

For each record, write down the corresponding calcium oscillation score.
Molecular target: Tau
Test: rat primary cortical neurons, FLIPR, 25 uM ASO
Bases are written 5' to 3'; sugars and linkages follow in the same order, as letters with counts (s phosphorothioate, o phosphodiester; PS: all linkages phosphorothioate). The collection does not say whether C is 5-methylated. l = locked nucleic acid (LNA); d = 2'-deoxy (DNA)

GCAGGTTAAGTGATTAACCA (sugars l3 d14 l3, PS) = 36.3 % of control
CAGGGACCCAATCTTCGACT (sugars l3 d14 l3, PS) = 9.04 % of control
TCTTCCTTTGTAATTCCT (sugars l3 d13 l2, PS) = 57.9 % of control

Batch lookup, calcium oscillation score per entry.
1. CATCAACACCTTTTAATTCA (sugars l2 d14 l4, PS)
2. TTGTAGACTATTTG (sugars l3 d8 l3, PS)
3. CTCTCTGCATATATAAT (sugars l4 d9 l4, PS)

### Response
98.4 % of control
63.3 % of control
72.2 % of control

* * *

Task for the reader: assign each of the following sequences its reported calcium oscillation score.
Molecular target: Tau
Test: rat primary cortical neurons, FLIPR, 25 uM ASO
Bases are written 5' to 3'; sugars and linkages follow in the same order, as letters with counts (s phosphorothioate, o phosphodiester; PS: all linkages phosphorothioate). The collection does not say whether C is 5-methylated. l = locked nucleic acid (LNA); d = 2'-deoxy (DNA)

Consider the reported calcium oscillation score for these sequences:
GGGAGGCAGACACCTCGTCA (sugars l3 d14 l3, PS) = 102 % of control
ATGTCGATGCTGCCGG (sugars l3 d10 l3, PS) = 0 % of control
TTGGCGTTCTCGCGGA (sugars l3 d10 l3, PS) = 0 % of control

Give measured calcium oscillation score for every item shown.
1. GGAGTGCTCTTAGCATCAGA (sugars l3 d14 l3, PS)
2. CTCCAATTTTAAACTTAA (sugars l4 d10 l4, PS)
3. CAGGTATCCAGCCATATTTC (sugars l3 d14 l3, PS)
4. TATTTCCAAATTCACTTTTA (sugars lldlldddddddddlddlll, PS)

### Response
1: 14.8 % of control; 2: 69 % of control; 3: 27.5 % of control; 4: 76.7 % of control

Answer for every listed entry: what is its calcium oscillation score? The entries follow.
1. CCGAATTTACACCCAA (sugars l2 d10 l4, PS)
2. CTTTATTTCCAAATTCACT (sugars l5 d9 l5, PS)
3. TTACACCATCCAAGTCAATG (sugars l3 d14 l3, PS)
4. CCACTGGCGACTTGTACACG (sugars l3 d14 l3, PS)
5. ATTCATTTTACTTTACTTT (sugars l4 d11 l4, PS)
6. TTGAAGTCCCGAGCC (sugars l3 d9 l3, PS)

### Response
79.1 % of control
127 % of control
24.2 % of control
16.8 % of control
64.6 % of control
0 % of control

# return calcium oscillation score for each item in the list
1. CTTTACCCATCTTAATTCAT (sugars l3 d15 l2, PS)
2. GCACCATATTACACCA (sugars l3 d11 l2, PS)
3. TTCCAGTCCCGTCTTT (sugars l3 d10 l3, PS)
4. GGTCAACTGGTTTGTAGACT (sugars l3 d14 l3, PS)
5. ACCCTTACACATAGCTTC (sugars l2 d13 l3, PS)
6. GTCTGAGCTACCAGGA (sugars l3 d10 l3, PS)
7. CCTATGCCAATTATTT (sugars l4 d8 l4, PS)
8. TACCCCATTTTTGACA (sugars l3 d11 l2, PS)

### Response
["82.1 % of control", "95.9 % of control", "73.1 % of control", "6.9 % of control", "53.9 % of control", "11.7 % of control", "68.2 % of control", "60.9 % of control"]

// each listed sequence needs a value for calcium oscillation score
1. CCACCCTAACACAATCA (sugars l2 d12 l3, PS)
2. CACCCTTACACATAGCT (sugars l3 d12 l2, PS)

### Response
["94 % of control", "55.6 % of control"]

Data credit: the OligoGym collection
